System: ABL1-nonphosphorylated
Details: concentration: 1 μM, replicates: in singlicate; n = 1;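 further: KINOMEscan kinase panel screen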
Entries annotated with measured %Inh
State the answer as a number, implicitly in %.

Short answer on ABL1-nonphosphorylated for O=C(CCO)NCCn1ccc2ncnc(Nc3ccc(Oc4cccc(C(F)(F)F)c4)c(Cl)c3)c21 , %Inh: 24

Short answer on ABL1-nonphosphorylated for FC(F)(F)c1cc(Nc2nccc(-c3c(-c4ccc(Cl)cc4)nn4ncccc34)n2)ccc1Cl , %Inh: 42

Short answer on ABL1-nonphosphorylated for CCc1nc(-c2cccc(N(C)S(=O)(=O)c3ccccc3)c2)c(-c2ccnc(Nc3ccc(N4CCN(C(C)=O)CC4)nc3)n2)s1 , %Inh: 28

Short answer on ABL1-nonphosphorylated for Oc1ccc2ncnc(Nc3ccc(OCc4ccccc4)cc3)c2c1 , %Inh: 0

Short answer on ABL1-nonphosphorylated for C[C@H]1CC[C@@H](C(=O)Nc2ccccc2)CN1c1cc(-c2ccc3c(N)n[nH]c3c2)nc(N)n1 , %Inh: 0

Short answer on ABL1-nonphosphorylated for Cc1ccc(C)c(NC(=O)NCCNc2ccnc(Nc3ccc(F)cc3)n2)c1 , %Inh: 0

Short answer on ABL1-nonphosphorylated for COc1cc2c(Nc3cccc(NC(=O)c4ccccc4)c3)ncnc2cc1OCCCN1CCOCC1 , %Inh: 41

Short answer on ABL1-nonphosphorylated for CS(=O)(=O)CCNCc1nc(-c2ccc3ncnc(Nc4ccc(OCc5cccc(F)c5)c(Cl)c4)c3c2)cs1.Cl , %Inh: 0

Short answer on ABL1-nonphosphorylated for NC(=O)c1sc(-n2cnc3ccccc32)cc1OCc1ccccc1F , %Inh: 0

Short answer on ABL1-nonphosphorylated for Cc1cc(N2CCC(NS(=O)(=O)c3ccc(F)cc3)CC2)nc(Nc2cccc(C#N)c2)n1.O=C(O)C(F)(F)F , %Inh: 0

Short answer on ABL1-nonphosphorylated for Nc1nc(-c2ccc3c(N)n[nH]c3c2)cc(N2CCCCC2)n1 , %Inh: 0

---

Test system: MELK
Settings: concentration: 1 μM, replicates: in singlicate; n = 1
Entries annotated with measured %Inh
State the answer as a number, implicitly in %.

OCCOCCn1ccc2ncnc(Nc3ccc(Oc4cccc(Cl)c4)c(Cl)c3)c21; 0
Fc1cccc(COc2ccc(Nc3ncnc4nn5ccccc5c34)cc2Cl)c1; 5
O=C(CCO)NCCn1ccc2ncnc(Nc3ccc(Oc4cccc(C(F)(F)F)c4)c(Cl)c3)c21; 0
COc1cc2ncnc(Nc3ccc(OCc4ccccc4Br)c(Cl)c3)c2cc1OC.Cl; 0
FC(F)(F)c1ccc(-c2nn3ncccc3c2-c2ccnc(Nc3cccc(C(F)(F)F)c3)n2)cc1; 0

In plain terms, Cl.Fc1ccccc1COc1ccc(Nc2ncnc3ccc(-c4nnc(C(F)(F)F)o4)cc23)cc1Cl has a documented %Inh of 0

In plain terms, CCn1c(-c2ccncc2)nc2cnccc21 has a documented %Inh of 0

In plain terms, Cl.c1ccc(Cn2ncc3cc(Nc4ncnc5ccccc45)ccc32)cc1 has a documented %Inh of 0

In plain terms, Cc1ccc(NC(=O)c2cccc(C#N)c2)cc1-c1ccc(C(=O)Nc2ccncc2)cc1 has a documented %Inh of 0

In plain terms, Nc1nc(-c2ccc3c(N)n[nH]c3c2)cc(N2CCCCC2)n1 has a documented %Inh of 0

In plain terms, CSc1nn2c(=O)cc(N3CCOCC3)nc2n1Cc1cccc(Cl)c1Cl has a documented %Inh of 18

In plain terms, CN1c2ccc(-c3ccc(C(=O)NCCO)cc3)cc2-c2[nH]ncc2S1(=O)=O has a documented %Inh of 32

In plain terms, Fc1ccc(-c2ncn(CCCNCc3ccccc3)c2-c2ccncc2)cc1 has a documented %Inh of 5

In plain terms, CC(=O)Nc1n[nH]c2ncc(-c3ccccc3)cc12 has a documented %Inh of 21

In plain terms, N#Cc1ccc(Oc2ccc(Nc3ncnc4cc[nH]c34)cc2Cl)cc1 has a documented %Inh of 25

In plain terms, C[C@H]1CC[C@@H](C(=O)Nc2ccccc2)CN1c1cc(-c2ccc3c(N)n[nH]c3c2)nc(N)n1 has a documented %Inh of 0

In plain terms, Clc1cccc(-c2nc(Nc3ccncc3)c3ccccc3n2)c1 has a documented %Inh of 31

In plain terms, CS(=O)(=O)CCNCc1ccc(-c2ccc3ncnc(Nc4ccc(OCc5ccccc5)c(Cl)c4)c3c2)o1.Cl has a documented %Inh of 23

In plain terms, CCc1nc(-c2cccc(N(C)S(=O)(=O)c3ccccc3)c2)c(-c2ccnc(Nc3ccc(N4CCN(C(C)=O)CC4)nc3)n2)s1 has a documented %Inh of 0

In plain terms, COc1cc2c(Nc3cccc(NC(=O)c4ccccc4)c3)ncnc2cc1OCCCN1CCOCC1 has a documented %Inh of 15

In plain terms, O=C(NCCCN1CCCC1=O)c1cnc(NCc2cc(Cl)ccc2Cl)nc1NC1CCNCC1 has a documented %Inh of 0

---

System: MRCKA
Settings: concentration: 1 μM, replicates: in singlicate; n = 1
readout-label: %Inh (%)
State the answer as a number, implicitly in %.

In plain terms, Fc1ccc(-c2ncn(CCCNCc3ccccc3)c2-c2ccncc2)cc1 has a documented %Inh of 0

In plain terms, Cc1cccc(-c2nc(Nc3ccc4[nH]nnc4c3)c3ccccc3n2)n1 has a documented %Inh of 0

In plain terms, COc1cc2ncnc(Nc3ccc(OCc4ccccc4Br)c(Cl)c3)c2cc1OC.Cl has a documented %Inh of 23

In plain terms, Cl.O=S(=O)(c1cccc(F)c1)c1ccc(Nc2ncnc3cc(Br)sc23)cc1Cl has a documented %Inh of 18

In plain terms, Nc1n[nH]c2nnc(-c3ccccc3)cc12 has a documented %Inh of 16

In plain terms, OCCOCCn1ccc2ncnc(Nc3ccc(Oc4cccc(Cl)c4)c(Cl)c3)c21 has a documented %Inh of 0

In plain terms, Clc1ccc(-c2cc(-c3c[nH]nc3-c3ccccn3)ccn2)cc1 has a documented %Inh of 0

In plain terms, O=C(Nc1ccccc1F)NC1CCN(c2ccnc(Nc3ccc(F)cc3)n2)C1 (stereo not drawn) has a documented %Inh of 15

In plain terms, COc1ccc(NC(=O)Nc2ccc(C)c(-c3ccc(C(=O)Nc4ccncc4)cc3)c2)cc1 has a documented %Inh of 19

In plain terms, Clc1cc(Nc2ncnc3cc[nH]c23)ccc1OCc1ccccn1 has a documented %Inh of 0

In plain terms, CN1CCC(n2cnc(-c3ccc(F)cc3)c2-c2ccnc(NC3CCNCC3)n2)CC1 has a documented %Inh of 6

---

Entries annotated with measured %Inh
Tested on: RET
Conditions: concentration: 1 μM, replicates: in singlicate; n = 1
State the answer as a number, implicitly in %.

N#Cc1ccc(Oc2ccc(Nc3ncnc4cc[nH]c34)cc2Cl)cc1; 19

In plain terms, O=C(Nc1ccccc1F)NC1CCN(c2ccnc(Nc3ccc(F)cc3)n2)C1 (centres unmarked) has a documented %Inh of 8

In plain terms, COc1ccc(-c2oc3ncnc(N)c3c2-c2ccc(OC)cc2)cc1 has a documented %Inh of 11

In plain terms, CSc1ccc(NC2=C(c3ccccc3Cl)C(=O)NC2=O)cc1 has a documented %Inh of 14

In plain terms, FC(F)(F)c1ccc(-c2cc(-c3c[nH]nc3-c3ccccn3)ccn2)cc1 has a documented %Inh of 14

In plain terms, FC(F)(F)c1cc(Nc2nccc(-c3c(-c4ccc(Cl)cc4)nn4ncccc34)n2)ccc1Cl has a documented %Inh of 0

In plain terms, Nc1nc(-c2ccccn2)c(-c2ccnc3ccccc23)s1 has a documented %Inh of 23

In plain terms, O=C(Nc1ccccc1)Nc1ccc(Oc2ccc3nccn3n2)cc1 has a documented %Inh of 0

In plain terms, Nc1nc(-c2cccnc2)c(-c2ccnc3ccccc23)s1 has a documented %Inh of 0

In plain terms, Cn1cc(-c2ccc3c(c2)CCN3C(=O)Cc2cccc(C(F)(F)F)c2)c2c(N)ncnc21 has a documented %Inh of 78

In plain terms, C[C@H]1CC[C@@H](C(=O)Nc2ccccc2)CN1c1cc(-c2ccc3c(N)n[nH]c3c2)nc(N)n1 has a documented %Inh of 0

In plain terms, COc1ccc(Nc2nccc(N3CCC(NC(=O)Nc4ccc5c(c4)OCO5)C3)n2)cc1 (centres unmarked) has a documented %Inh of 9

In plain terms, CN1CCC(n2cnc(-c3ccc(F)cc3)c2-c2ccnc(NC3CCNCC3)n2)CC1 has a documented %Inh of 20

In plain terms, O=C(CCO)NCCn1ccc2ncnc(Nc3ccc(Oc4cccc(C(F)(F)F)c4)c(Cl)c3)c21 has a documented %Inh of 0

---

Tested on: HIPK3
Settings: concentration: 1 μM, replicates: in singlicate; n = 1
Entries annotated with measured %Inh
State the answer as a number, implicitly in %.

C[C@@H]1CCN(C(=O)CO)C[C@@H]1N(C)c1ncnc2[nH]ccc12; 0

In plain terms, Cc1cccc(-c2nc(Nc3ccc4[nH]nnc4c3)c3ccccc3n2)n1 [GW867587] has a documented %Inh of 0

In plain terms, CCCc1ccc(S(=O)(=O)NC2CCN(c3ccnc(Nc4ccc(OC)cc4)n3)C2)cc1 (stereo not shown) [GSK1379737] has a documented %Inh of 8

In plain terms, O=C(Nc1n[nH]c2nc(-c3ccco3)c(Br)cc12)c1ccc(CN2CCCC2)cc1.O=C(O)[C@H](O)[C@@H](O)C(=O)O [SB-742352] has a documented %Inh of 0

In plain terms, CC(C)(C)OC(=O)NC1CCCN(c2cc(-c3ccc4c(N)n[nH]c4c3)nc(N)n2)C1 (stereo not shown) [GSK2286096] has a documented %Inh of 12

In plain terms, Cl.Fc1ccccc1COc1ccc(Nc2ncnc3ccc(-c4nnc(C(F)(F)F)o4)cc23)cc1Cl [GW424170] has a documented %Inh of 0

In plain terms, Nc1nc(-c2cccnc2)c(-c2ccnc3ccccc23)s1 [GW684083] has a documented %Inh of 0

In plain terms, OCCOCCn1ccc2ncnc(Nc3ccc(Oc4cccc(Cl)c4)c(Cl)c3)c21 has a documented %Inh of 0

In plain terms, COc1ccc(Nc2nccc(N3CCC(NC(=O)Nc4ccc5c(c4)OCO5)C3)n2)cc1 (stereo not shown) [GSK1379745] has a documented %Inh of 23

In plain terms, Cn1cc(-c2ccc3c(c2)CCN3C(=O)Cc2cccc(C(F)(F)F)c2)c2c(N)ncnc21 [GSK2606414] has a documented %Inh of 16

In plain terms, Fc1ccc(-c2ncn(CCCNCc3ccccc3)c2-c2ccncc2)cc1 has a documented %Inh of 45

In plain terms, CC(=O)Nc1n[nH]c2ncc(-c3ccccc3)cc12 [SB-548492] has a documented %Inh of 34
